- Protocol Text: activity coefficient (dimensionless); of the first substance listed, at infinite dilution; xn = mol fraction of the nth substance listed
- Condition: 333.15 K; 101.3 kPa; Liquid; Chromatography; x1 = 0
Each entry falls in a class defined on activity coefficient; the bands are class A (below 10), class B (10 to below 50), class C (50 or more)

Molecule: CCCCC [pentane] + CCn1cc[n+](C)c1.COP(=O)([O-])OC
Assigned Label: class C

Molecule: Cc1ccc(C)cc1 [1,4-dimethylbenzene] + CCn1cc[n+](C)c1.COP(=O)([O-])OC
Assigned Label: class B

Molecule: C1=CCCCC1 [cyclohexene] + CCn1cc[n+](C)c1.COP(=O)([O-])OC
Assigned Label: class B

Molecule: Cc1ccccc1 [toluene] + CCn1cc[n+](C)c1.COP(=O)([O-])OC
Assigned Label: class A

Molecule: C1=CCCCC1 [cyclohexene] + COP(=O)([O-])OC.Cn1cc[n+](C)c1
Assigned Label: class B

Incoming: Which category fits this record: C1CCCCC1 [cyclohexane] + COP(=O)([O-])OC.Cn1cc[n+](C)c1
Outgoing: class C

Incoming: Sort into band: CC(C)CC(C)(C)C [2,2,4-trimethylpentane] + CCn1cc[n+](C)c1.COP(=O)([O-])OC
Outgoing: class C

Incoming: Would you mind sorting Cc1ccccc1C [1,2-dimethylbenzene] + CCn1cc[n+](C)c1.COP(=O)([O-])OC into the appropriate category?
Outgoing: class A

Incoming: Field: class (activity coefficient) — entry: c1ccccc1 [benzene] + CCn1cc[n+](C)c1.COP(=O)([O-])OC
Outgoing: class A

* * *

Overview of reported activity coefficient across a group of compounds:
- Protocol Text: activity coefficient (dimensionless); of the first substance listed, at infinite dilution; xn = mol fraction of the nth substance listed
- Condition: 323.15 K; 101.3 kPa; Liquid; Chromatography; x1 = 0
# answer = number (no unit)

Below: 3 compounds and their reported activity coefficient.
Compound: CCCCCCCCC [nonane] + COP(=O)([O-])OC.Cn1cc[n+](C)c1
activity coefficient: 384

Compound: C1CCCCC1 [cyclohexane] + CCn1cc[n+](C)c1.COP(=O)([O-])OC
activity coefficient: 48.9

Compound: C1CCCCC1 [cyclohexane] + COP(=O)([O-])OC.Cn1cc[n+](C)c1
activity coefficient: 56

Incoming: Reported activity coefficient, compound CCCCCCCCC [nonane] + CCn1cc[n+](C)c1.COP(=O)([O-])OC : ____
Outgoing: 243

Incoming: # lookup: activity coefficient of CCCCCC [hexane] + CCn1cc[n+](C)c1.COP(=O)([O-])OC
Outgoing: 122

* * *

- Protocol Text: activity coefficient (dimensionless); of the first substance listed, at infinite dilution; xn = mol fraction of the nth substance listed
- Condition: 363.15 K; 101.3 kPa; Liquid; Chromatography; x1 = 0
Each record here notes measured activity coefficient.

Compound: C=Cc1ccccc1 [styrene] + CCn1cc[n+](C)c1.COP(=O)([O-])OC
Endpoint Value: 4.71
--
Compound: CC(C)CC(C)(C)C [2,2,4-trimethylpentane] + CCn1cc[n+](C)c1.COP(=O)([O-])OC
Endpoint Value: 119
--
Compound: CCCCCCC [heptane] + COP(=O)([O-])OC.Cn1cc[n+](C)c1
Endpoint Value: 216
--
Compound: C1CCCCC1 [cyclohexane] + COP(=O)([O-])OC.Cn1cc[n+](C)c1
Endpoint Value: 45.7
--
Compound: Cc1ccc(C)cc1 [1,4-dimethylbenzene] + CCn1cc[n+](C)c1.COP(=O)([O-])OC
Endpoint Value: 9.53

Incoming: Looking for the measured activity coefficient of C1=CCCCC1 [cyclohexene] + CCn1cc[n+](C)c1.COP(=O)([O-])OC , can you help?
Outgoing: 15.5

Incoming: Which activity coefficient reading was recorded for the compound c1ccccc1 [benzene] + COP(=O)([O-])OC.Cn1cc[n+](C)c1 ?
Outgoing: 3.56

Incoming: Need activity coefficient of CCCCCCCCCC [decane] + COP(=O)([O-])OC.Cn1cc[n+](C)c1 , thanks.
Outgoing: 414

Incoming: Which activity coefficient is reported for this compound? CC1CCCCC1 [methylcyclohexane] + CCn1cc[n+](C)c1.COP(=O)([O-])OC
Outgoing: 45.5

Incoming: Fill in: activity coefficient of Cc1cccc(C)c1 [1,3-dimethylbenzene] + COP(=O)([O-])OC.Cn1cc[n+](C)c1 is ___
Outgoing: 13.9

Incoming: Field request: activity coefficient | item: CCCCCCCC [octane] + CCn1cc[n+](C)c1.COP(=O)([O-])OC
Outgoing: 132

Incoming: Field request: activity coefficient | item: C1=CCCCC1 [cyclohexene] + COP(=O)([O-])OC.Cn1cc[n+](C)c1
Outgoing: 28.3
